Where these numbers come from: paper PMC10940605

tested on: MALME-3M; assay: NCI-60 SRB screen; assay type: cell-based; conditions: Homo sapiens, 10^–5 Molar, read-out: Percent growth inhibition
Field: class. Source value: inhibition at 10 µM. Ranges: one (below 4%), two (4% to below 40%), three (40% or more)

{"compound": "CCn1cc(C(=O)O)c(=O)c2cc(F)c(N3CCN(CC(=O)Nc4ccc(Cl)cc4)C(C)C3)c(F)c21 (centres unmarked)", "qualitative label": "two"}
{"compound": "CCn1cc(C(=O)NN=Cc2cccc(F)c2)c(=O)c2cc(F)c(N3CCNC(C)C3)c(F)c21 (centres unmarked)", "qualitative label": "three"}
{"compound": "CCn1cc(C(=O)NN=Cc2cccs2)c(=O)c2cc(F)c(N3CCNC(C)C3)c(F)c21 (centres unmarked)", "qualitative label": "three"}
{"compound": "CCn1cc(C(=O)NN=Cc2ccc(Br)cc2)c(=O)c2cc(F)c(N3CCNC(C)C3)c(F)c21 (centres unmarked)", "qualitative label": "three"}
{"compound": "CCn1cc(C(=O)O)c(=O)c2cc(F)c(N3CCN(CC(=O)Nc4ccc(OC)cc4)C(C)C3)c(F)c21 (centres unmarked)", "qualitative label": "one"}
{"compound": "CCn1cc(C(=O)NN=Cc2ccccc2)c(=O)c2cc(F)c(N3CCNC(C)C3)c(F)c21 (centres unmarked)", "qualitative label": "three"}
{"compound": "CCn1cc(C(=O)O)c(=O)c2cc(F)c(N3CCN(C(=O)c4ccc([N+](=O)[O-])cc4)C(C)C3)c(F)c21 (centres unmarked)", "qualitative label": "one"}
{"compound": "CCn1cc(C(=O)O)c(=O)c2cc(F)c(N3CCN(C(=O)c4ccccc4)C(C)C3)c(F)c21 (centres unmarked)", "qualitative label": "two"}
{"compound": "CCn1cc(C(=O)O)c(=O)c2cc(F)c(N3CCN(CC(=O)Nc4ccccc4)C(C)C3)c(F)c21 (centres unmarked)", "qualitative label": "one"}
{"compound": "CCn1cc(C(=O)O)c(=O)c2cc(F)c(N3CCN(C(=O)c4ccc(Cl)cc4)C(C)C3)c(F)c21 (centres unmarked)", "qualitative label": "one"}
